# TESTED ON: pooled human IgG (human IgG1,2,3 and 4)
ASSAY ENDPOINT: Enzyme Activity Endpoint Assay: IgG (ng/µL)
Give your result in ng/µL as a bare value.

PRT-95 (protein) MANQEIRYSEVTPYHITSVWTKGVTPPAKFTQGEDVFHAPYVANQGWYDITKTFNGKDDLLCGAATAGNMLHWWFDQNKEKIEAYLKKHPDKQKIMFGDQELLDVRKVINTKGDQTNSELFNYFRDKAFPNLSARRIGVMPDLVLDMFINGYYLNVGKTQTTDVNRTYQEKDKRGGIFDAVFTRGDQSKLLTSRHDFKEKNLKEISDLIKQELTEGKALGLSHTYANVRINHVINLWGADFDSNGNLKAIYVTDSDSNASIGMKKYFVGVNSAGKVAISAKEIEEDNIGAQVLGLFTLSTGQDSWNQTN ... 102

Alright, here's another protein for you.
Task: Endpoint output: Enzyme Activity Endpoint Assay: IgG of PRT-670 (protein) MQITSVWTKGVTPLTPEQFRNNNEDVFHAPYLPNQGWYDITKAFNGKDNLLCGAATAGNMLHWWFDQNKEEIEAYLKKYPEKQKIIFNNQELFDLRKAINTKDSQTNSALFNYFRDKAFPNLSARQLGVMPDHVLDMFINGYYLNVGKTQSTDVNRPYQDKDKRGGIFDHVFNRGDQTKLLTARHDLKNKTLNDISTLIKQELSSGKALALSHTYANVGISHVINLWGADFNAEGNLEAIYVTDSDDRASIGMKKYYVGRNASGHVAISAKKIEGENLGAQVLGLFTLSSGKEIWQKLSLEHHHHHH . Value?
Output: 594
